- Protocol Summary: clinical
- Condition Context: human, in vivo, po, 60 mg/m2, tmax, mean ± SD
Test Readout: Tmax (h)
# number only, unit h dropped from output

Query string: Can you share its Tmax? I mean this compound: CCc1c2c(nc3ccc(OC(=O)N4CCC(N5CCCCC5)CC4)cc13)-c1cc3c(c(=O)n1C2)COC(=O)[C@]3(O)CC [irinotecan]
Result string: 3

###

- Protocol Summary: clinical
- Condition Context: human, in vivo, iv, 60 mg/m2, AUC0-inf, mean ± SD
Test Readout: AUC(0-inf) (ng·h/mL)
# number only, unit ng·h/mL dropped from output

Query string: Can you share its AUC(0-inf)? I mean this compound: CCc1c2c(nc3ccc(OC(=O)N4CCC(N5CCCCC5)CC4)cc13)-c1cc3c(c(=O)n1C2)COC(=O)[C@]3(O)CC
Result string: 3020

###

- Protocol Summary: clinical
- Condition Context: human, in vivo, Absolute bioavailabiity of irinotecan, Median
Test Readout: bioavailability (%)
# number only, unit % dropped from output

Query string: Can you share its bioavailability? I mean this molecule: CCc1c2c(nc3ccc(OC(=O)N4CCC(N5CCCCC5)CC4)cc13)-c1cc3c(c(=O)n1C2)COC(=O)[C@]3(O)CC
Result string: 15.4

###

- Protocol Summary: clinical
- Condition Context: human, in vivo, po, 60 mg/m2, Cmax, mean ± SD
Test Readout: Cmax (ng/mL)
# number only, unit ng/mL dropped from output

Query string: Can you share its Cmax? I mean this compound: CCc1c2c(nc3ccc(OC(=O)N4CCC(N5CCCCC5)CC4)cc13)-c1cc3c(c(=O)n1C2)COC(=O)[C@]3(O)CC
Result string: 73.1

###

- Protocol Summary: clinical
- Condition Context: human, in vivo, iv, 60 mg/m2, AUC0-inf, median
Test Readout: AUC(0-inf)
The number alone won't do; follow it with the unit.

Query string: Can you share its AUC(0-inf)? I mean this compound: CCc1c2c(nc3ccc(OC(=O)N4CCC(N5CCCCC5)CC4)cc13)-c1cc3c(c(=O)n1C2)COC(=O)[C@]3(O)CC
Result string: 2610 ng·h/mL

###

- Protocol Summary: clinical
- Condition Context: human, in vivo, po, 60 mg/m2, AUC0-inf, mean ± SD
Test Readout: AUC(0-inf)
The number alone won't do; follow it with the unit.

Query string: Can you share its AUC(0-inf)? I mean this compound: CCc1c2c(nc3ccc(OC(=O)N4CCC(N5CCCCC5)CC4)cc13)-c1cc3c(c(=O)n1C2)COC(=O)[C@]3(O)CC
Result string: 732 ng·h/mL

###

- Protocol Summary: Pharmacokinetics and absolute bioavailability at MTD, IV/oral cross-over in patients
- Condition Context: human, in vivo, po, 60 mg/m2, Cmax, range, plasma, irinotecan 60 mg/m^2 PO, N=14
Test Readout: Cmax

Query string: Can you share its Cmax? I mean this molecule: CCc1c2c(nc3ccc(OC(=O)N4CCC(N5CCCCC5)CC4)cc13)-c1cc3c(c(=O)n1C2)COC(=O)[C@]3(O)CC
Result string: 9.49 to 274 ng/mL

###

- Protocol Summary: clinical
- Condition Context: human, in vivo, iv
Test Readout: AUC(0-inf) (ng·h/mL)
# number only, unit ng·h/mL dropped from output

Query string: Can you share its AUC(0-inf)? I mean this compound: CCc1c2c(nc3ccc(OC(=O)N4CCC(N5CCCCC5)CC4)cc13)-c1cc3c(c(=O)n1C2)COC(=O)[C@]3(O)CC [irinotecan]
Result string: 42000

src = patent US20050208146A1
